# TGT: Prostaglandin D2 receptor 2 (Homo sapiens) (UniProt Q9Y5Y4)
# Sequence (whole entry): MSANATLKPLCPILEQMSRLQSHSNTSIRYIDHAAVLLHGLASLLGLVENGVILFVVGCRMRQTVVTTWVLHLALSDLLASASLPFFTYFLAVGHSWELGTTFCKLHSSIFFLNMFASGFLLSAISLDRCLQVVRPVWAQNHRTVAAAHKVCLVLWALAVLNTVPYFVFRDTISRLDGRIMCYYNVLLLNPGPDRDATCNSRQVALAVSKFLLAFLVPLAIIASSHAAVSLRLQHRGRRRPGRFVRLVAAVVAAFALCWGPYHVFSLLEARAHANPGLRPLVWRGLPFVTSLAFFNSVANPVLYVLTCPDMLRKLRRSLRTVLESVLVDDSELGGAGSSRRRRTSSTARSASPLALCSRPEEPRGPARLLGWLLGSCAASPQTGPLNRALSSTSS
# PROTOCOL CONDITIONS: CHO.K1
# Description: Antagonist activity at CRTh2 (unknown origin) stably expressed in PGD2-stimulated CHO.K1 cells assessed as dissociation half-life at 5 to 10 times IC50 after 2 hrs by radio-labelled [35S]-GTPgammaS binding assay
Readings of T1/2 for the listed compounds
Quick reminder: number only, in h, skip the unit.

The cases that follow already have their T1/2 on record.
Cc1c(Cc2cc(C#N)ccc2S(=O)(=O)c2ccccc2)c2c(n1CC(=O)O)CCNC2=O    0.6
Cc1c(Cc2ccccc2S(=O)(=O)c2ccc(F)cc2)c2c(n1CC(=O)O)CCNC2=O    3.3

Task item: Answer with the recorded T1/2 of Cc1c(Cc2ccccc2C(O)c2ccccc2)c2c(n1CC(=O)O)CCNC2=O (centres undefined) only.
Reply: 0.4
